Assay: NCI Yeast Anticancer Drug Screen. Data for the rad50EPP+ strain (AID 151);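 note: 0% = growth of vehicle-treated control cultures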
Conditions: S. cerevisiae rad50 mutant strain, at 33.0 µM
This is part of a sample that, as a whole, favours compounds with a hit. Of some 79,000 tested, about 15% had one in any assay. Active and inactive are the calls of the source. Cut-off read from the data, not from the text of the source: active = growth inhibition above about 70%; inactive = the rest.
// allowed return values: active, inactive

compound: CCCCS/C(=C(/C#N)C(N)=O)c1cc2c([nH]1)CCCC2
discreteLabel: inactive
--
compound: OC(CC(O)(C(F)(F)F)C(F)(F)F)c1ccc(C(O)CC(O)(C(F)(F)F)C(F)(F)F)cc1 (stereo unspecified)
discreteLabel: inactive
--
compound: Nc1ccc(/C=C/c2ccc3cccnc3c2)cc1
discreteLabel: inactive
--
compound: O/N=c1/ccn(O)c2ccccc12
discreteLabel: active
--
compound: CCC(OC(C)=O)C1CC(C(C)C)CCC1C (stereo unspecified)
discreteLabel: inactive

Pending compound:
Ask: What was the test verdict on `COc1cc(C(=O)C=O)cc(OC)c1OC` ?
Result: inactive

---

Experiment: NCI Yeast Anticancer Drug Screen. Data for the rad14 strain (AID 159);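 note: 0% = growth of vehicle-treated control cultures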
Conditions: S. cerevisiae rad14 strain growth inhibition; at 1.2 µM; hits give high values
Compounds without any hit were thinned out: in the full panel of roughly 79,000, 15% have a hit.
measureName: growth inhibition (%)
Numbers only, in %.

compound: C=COC(=O)N[C@H]1CCc2cc(OC)c(OC)c(OC)c2-c2ccc(SC)c(=O)cc21
experimentalValue: -1

compound: O=C1C=C(Br)C(=O)c2ccccc21
experimentalValue: 10

compound: Cc1ccc(Nc2n[nH]c(=S)s2)c(C)c1
experimentalValue: -45

compound: NC(N)=NC(N)=Nc1ccccc1 (tested in a mixture with another compound)
experimentalValue: -1

compound: O=C1C(/C=C/c2ccc(Cl)cc2)=NNC2N1N=C1NC(=O)C3(NN12)c1ccccc1-c1ccccc13 (stereo not drawn)
experimentalValue: -1

compound: O=P(C(=S)Nc1c(Cl)cccc1Cl)(c1ccccc1)c1ccccc1
experimentalValue: -13

Your task in this section: give growth inhibition for each listed record.
1. c1ccc([P+](CCN2Cc3ccccc3C2)(c2ccccc2)c2ccccc2)cc1
2. CCC(/C=C/c1ccccc1)=N\Nc1ccc(Cl)c(Cl)c1
3. O=C1C=C(NCCc2cc(Br)c(O)c(Br)c2)C(=O)c2ncccc21
4. CCCCCCC1OCC(O)C(OCCCC)O1 (stereo not drawn)
5. CCS(=O)(=O)Nc1ccc(Nc2c3ccccc3nc3ccccc23)c(OC)c1

Result:
1. -22
2. 2
3. 24
4. -5
5. -40

For each entry beneath this line, provide reported growth inhibition.
1. C/C(=N\Sc1ccccc1)c1ccccc1O
2. Cc1cc(OCc2nc(N)nc(N)c2-c2ccc(Cl)c(Cl)c2)ccc1[N+](=O)[O-]
3. N#CCC(=O)N/N=C(\c1ccccc1)C(c1ccccc1)C1(O)C(=O)Nc2c(Cl)ccc(Cl)c21 (stereo not drawn)
4. CC(=O)CCC1=C(C)C(=O)C(=O)C(C)=C1O

Result:
1. -4
2. -1
3. 3
4. -2

Please state, for each entry, its recorded growth inhibition.
1. CC(CC/C(=N/O)c1ccccc1)(CC/C(=N\O)c1ccccc1)[N+](=O)[O-] (stereo not drawn)
2. CC(=O)/C=C/c1cc([N+](=O)[O-])ccc1O
3. Oc1c2c(c(O)c3ccccc13)C1(N=N2)c2ccccc2Oc2ccccc21
4. CCCCCCCCCCCCCCCCCCNc1nc(=O)n(C2CC(OP(=O)(O)OCC3OC(n4cc(F)c(=O)[nH]c4=O)CC3O)C(CO)O2)cc1F (stereo not drawn)
5. Cc1cccc2c(Cl)c3cccc(C)c3nc12
6. c1c[nH]c(CN2CCN(Cc3ncc[nH]3)CC2)n1

Result:
1. -2
2. -30
3. 17
4. 9
5. -2
6. -4

Can you give me growth inhibition for all of these, one by one?
1. Cc1cccc(/C=N/NC(=S)NC2CCCCC2)n1
2. Cc1c(Cl)c(C)c(Cl)c(O)c1Cl
3. CC1=COC2=C(C)C(=O)C(=O)c3c(C)ccc1c32
4. COC(=O)C1=C(C(=O)OC)CC(n2nnc(C(=O)OC)c2C(=O)OC)=CC1

Result:
1: -7; 2: 5; 3: 10; 4: 0
